assay: Zeta-potential measurement; type: physicochemical; settings: 1 mg/mL in PBS pH 7.4 from 10 mg/mL DMSO stock, 1 d RT, 60 µL diluted in 600 µL 1 mM KCl; Zetasizer Nano ZS, Smoluchowski; mean of triplicate
Reported values of Zeta pot. / mV for individual entries
Please respond with the number in mV and leave the unit unwritten.

- SUBSTANCE: "NKGAII [reference compound]"
  ENDPOINT_VALUE: -9.5
- SUBSTANCE: "IKFLSVN [reference compound]"
  ENDPOINT_VALUE: 5.9
- SUBSTANCE: "CKIKQII"
  ENDPOINT_VALUE: -3.83
- SUBSTANCE: "RVRVTVT"
  ENDPOINT_VALUE: -3.713
- SUBSTANCE: "CKFKFPF"
  ENDPOINT_VALUE: -1.053
- SUBSTANCE: "ISKLEYSNFSVRY [reference compound]"
  ENDPOINT_VALUE: 9.3
- SUBSTANCE: "CKIKIQI"
  ENDPOINT_VALUE: 12.8
- SUBSTANCE: "GAITIG-NH2 [reference compound]"
  ENDPOINT_VALUE: -5.4
- SUBSTANCE: "RQGNINIVA [reference compound]"
  ENDPOINT_VALUE: 10.2
- SUBSTANCE: "KIKIQINMWQRGD"
  ENDPOINT_VALUE: 1.7

Query block: Return reported Zeta pot. / mV; argument: RATVYV [reference compound]
Result block: -5.2

Query block: Return reported Zeta pot. / mV; argument: KAKAQANMWQ
Result block: -19.6

Query block: Return reported Zeta pot. / mV; argument: GYVIIK [reference compound]
Result block: 9.9

Query block: Return reported Zeta pot. / mV; argument: KLKLTLT
Result block: 1.713

Query block: Return reported Zeta pot. / mV; argument: QCKAKAQANMWQ
Result block: -8.1

====

Reported values of Zeta-Pot. for individual entries
assay: Zeta-potential measurement; type: physicochemical; conditions: zeta potential of peptide assemblies
Simply state the number, no unit and no words.

- SUBSTANCE: "CSISIQINM"
  Zeta-Pot.: -19.4
- SUBSTANCE: "KAKAQA"
  Zeta-Pot.: -14.08
- SUBSTANCE: "CKIKIQI"
  Zeta-Pot.: 12.8
- SUBSTANCE: "HHHHKIKIQINMYYYY"
  Zeta-Pot.: 7.807
- SUBSTANCE: "KFKFQFF"
  Zeta-Pot.: 6.903
- SUBSTANCE: "ILKNLSRSRKIKIQIC"
  Zeta-Pot.: 18

The record that follows has no Zeta-Pot. shown yet.
Query block: Return reported Zeta-Pot.; argument: KIEIQINM
Result block: -0.35

====

format: physicochemical; conditions: ThT fluorescence relative to blank (42.1851851851852 a.u.)
EXPERIMENTAL_READOUT: Tht rel to blank (42.1851851851852)
Simply state the number, no unit and no words.

- SUBSTANCE: "KIKIQINMWQ [JG1]"
  Tht rel to blank (42.1851851851852): 5.939
- SUBSTANCE: "KAKAQANMWQ [JG3]"
  Tht rel to blank (42.1851851851852): 0.9886

Query block: Return reported Tht rel to blank (42.1851851851852); argument: KIKIQI [JJA4]
Result block: 1.097

Query block: Return reported Tht rel to blank (42.1851851851852); argument: QCKFKFQF [CK9]
Result block: 2.014

These measurements were taken from paper PMC10447463.
